Test system: LG0567-F671-PDC complex spheroids viability;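 note: spheroids exposed to compound for seven days before readout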
Protocol text: Anticancer human tumor LG0567-F671-PDC patient-derived lung adenocarcinoma cell line growth inhibition [RAS]; active = viability on the fitted dose curve at most 10% of control; inactive = the rest
Experimental context: compound 0.03 µM
Classes used: t (active), f (inactive)

• CC1(C)CCC(Nc2ncc(C(F)(F)F)c(-c3c[nH]c4c(P(C)(C)=O)c(C#N)ccc34)n2)CN1 (centres undefined) = f
• CCn1c(-c2cccnc2C(C)OC)c2c3cc(ccc31)N1CCOC(CC(NC(=O)C(C(C)C)N(C)C(=O)C3(F)CCN(C(=O)C#CC(C)(C)N(C)C)CC3)C(=O)N3CCCC(N3)C(=O)OCC(C)(C)C2)C1 (centres undefined) = f
• CCc1c2c(nc3ccc(O)cc13)-c1cc3c(c(=O)n1C2)COC(=O)[C@]3(O)CC = f
• CCn1c(-c2cc(N3CCN(C)CC3)cnc2C(C)OC)c2c3cc(ccc31)-c1csc(n1)CC(NC(=O)C1CC1C)C(=O)N1CCCC(N1)C(=O)OCC(C)(C)C2 (centres undefined) = t

// provenance: PubChem BioAssay AID2060889
